# TEST TARGET: Melatonin receptor type 1A (Homo sapiens, UniProt P48039)
# Sequence (P48039 whole entry): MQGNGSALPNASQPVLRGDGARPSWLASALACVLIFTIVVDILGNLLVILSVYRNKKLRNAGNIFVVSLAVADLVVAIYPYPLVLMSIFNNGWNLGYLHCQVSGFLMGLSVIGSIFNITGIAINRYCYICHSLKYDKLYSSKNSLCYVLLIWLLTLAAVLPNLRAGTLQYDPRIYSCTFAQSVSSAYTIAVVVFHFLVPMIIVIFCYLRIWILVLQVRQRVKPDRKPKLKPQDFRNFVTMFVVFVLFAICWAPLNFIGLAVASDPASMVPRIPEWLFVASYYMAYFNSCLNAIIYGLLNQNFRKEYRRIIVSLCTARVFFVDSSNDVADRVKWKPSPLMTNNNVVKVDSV
pKi: −log10 of the molar value.
QUANTITY KIND: pKi

See these solved cases before continuing.
May I ask what pKi has been recorded for COc1cccc(-c2nc(CCNC(C)=O)c3cc(OC)ccc3n2)c1 ?
6.30

Continue with COc1ccc2ncnc(CCNC(C)=O)c2c1
6.64

Continue with CCCC(=O)NCCc1nncc2ccc(OC)cc12
5.94

(1) CCC(=O)NCCc1nncc2ccc(OC)cc12
(2) COc1ccc2nc(-c3ccccc3)nc(CCNC(C)=O)c2c1
// max by pKi over [ 1 , 2 ] Write the label of whichever entry you select.
2

Reference source: ChEMBL document CHEMBL4680188
